- Test target: Tyrosine-protein kinase BTK (Homo sapiens)
- Sequence (Q06187 whole entry): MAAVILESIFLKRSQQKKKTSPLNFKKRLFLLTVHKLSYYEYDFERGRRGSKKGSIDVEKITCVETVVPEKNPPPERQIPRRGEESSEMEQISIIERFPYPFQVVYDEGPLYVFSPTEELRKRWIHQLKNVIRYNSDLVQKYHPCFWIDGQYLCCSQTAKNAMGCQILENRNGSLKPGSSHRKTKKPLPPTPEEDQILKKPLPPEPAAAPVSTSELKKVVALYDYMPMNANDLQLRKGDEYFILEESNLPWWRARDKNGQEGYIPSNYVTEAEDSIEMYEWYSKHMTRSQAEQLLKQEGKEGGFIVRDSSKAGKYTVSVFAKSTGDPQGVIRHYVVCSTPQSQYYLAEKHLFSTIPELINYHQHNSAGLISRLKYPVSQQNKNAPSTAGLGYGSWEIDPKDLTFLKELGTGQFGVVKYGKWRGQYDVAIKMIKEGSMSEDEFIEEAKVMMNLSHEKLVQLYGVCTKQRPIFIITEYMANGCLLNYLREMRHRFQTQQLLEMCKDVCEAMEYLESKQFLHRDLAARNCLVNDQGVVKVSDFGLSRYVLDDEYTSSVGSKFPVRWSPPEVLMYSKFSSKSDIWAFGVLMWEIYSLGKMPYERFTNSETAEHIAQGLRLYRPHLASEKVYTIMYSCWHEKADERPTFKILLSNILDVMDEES
- Assay comment: To each well of a black non-binding surface Corning 384-well microplate (Corning Catalog #3820), 5 nL of compound (2000 fold dilution in final assay volume of 10 μL) was dispensed, followed by the addition of 7.5 μL of 1× kinase buffer (50 mM Hepes 7.5, 10 mM MgCl2, 0.01% Brij-35, 1 mM EGTA, 0.05% BSA & 1 mM DTT) containing 5.09 pg/μL (66.67 pM) of BTK enzyme (recombinant protein from baculovirus-transfected Sf9 cells: full-length BTK, 6HIS-tag cleaved). Following a 60 minute compound & enzyme incubation, each reaction was initiated by the addition of 2.5 μL 1× kinase buffer containing 8 μM biotinylated A5 peptide (Biotin-EQEDEPEGDYFEWLE-NH2), and 100 μM ATP. The final reaction in each well of 10 μL consists of 50 pM hBTK, 2 μM biotin-A5-peptide, and 25 μM ATP. Phosphorylation reactions were allowed to proceed for 120 minutes. Reactions were immediately quenched by the addition of 20 uL of 1× quench buffer (15 mM EDTA, 25 mM Hepes 7.3, and 0.1% Triton X-100) containing detection reagents (0.626 nM of LANCE-Eu-W1024-anti-phosphoTyrosine antibody, PerkinElmer and 86.8 nM of Streptavidin-conjugated Dylight 650, Dyomics/ThermoFisher Scientific). After 60 minutes incubation with detection reagents, reaction plates were read on a PerkinElmer EnVision plate reader using standard TR-FRET protocol. Briefly, excitation of donor molecules (Eu-chelate:anti-phospho-antibody) with a laser light source at 337 nm produces energy that can be transferred to Dylight-650 acceptor molecules if this donor:acceptor pair is within close proximity. Fluorescence intensity at both 665 nm (acceptor) and 615 nm (donor) are measured and a TR-FRET ratio calculated for each well (acceptor intensity/donor intensity).
pIC50: −log10 of the molar value.
Measure: pIC50

Answered examples (3):
# compound "CO[C@H](C)C(=O)N1CCC[C@@H](c2nn(-c3ccc(Oc4ccccc4)cc3)c3c(N)nccc23)C1" ; its pIC50 = 8.26

# compound "COCCC(=O)N1CCC[C@@H](c2nn(-c3ccc(Oc4ccccc4)cc3)c3c(N)nccc23)C1" ; its pIC50 = 8.74

# compound "CC#CC(=O)N1CCC[C@@H](c2nn(-c3ccc(Oc4ccccc4)cc3)c3c(N)nccc23)C1" ; its pIC50 = 9.00

(P) CCC(=O)N1CCC[C@@H](c2nn(-c3ccc(Oc4ccccc4)cc3)c3c(N)nccc23)C1
(Q) C[C@@H](O)C(=O)N1CCC[C@@H](c2nn(-c3ccc(Oc4ccccc4)cc3)c3c(N)nccc23)C1
(R) Nc1nccc2c([C@@H]3CCCN(C(=O)C4CCC4)C3)nn(-c3ccc(Oc4ccccc4)cc3)c12
Q) Arrange the 3 compounds by rising pIC50, starting with the smallest. Show the ranking through the labels, in the order asked for.
A) R, P, Q

###

- Test target: Tyrosine-protein kinase BTK (Homo sapiens)
- Assay comment: To each well of a black non-binding surface Corning 384-well microplate (Corning Catalog #3820), 5 nL of compound (2000 fold dilution in final assay volume of 10 μL) was dispensed, followed by the addition of 7.5 μL of 1× kinase buffer (50 mM Hepes 7.5, 10 mM MgCl2, 0.01% Brij-35, 1 mM EGTA, 0.05% BSA & 1 mM DTT) containing 5.09 pg/μL (66.67 pM) of BTK enzyme (recombinant protein from baculovirus-transfected Sf9 cells: full-length BTK, 6HIS-tag cleaved). Following a 60 minute compound & enzyme incubation, each reaction was initiated by the addition of 2.5 μL 1× kinase buffer containing 8 μM biotinylated A5 peptide (Biotin-EQEDEPEGDYFEWLE-NH2), and 100 μM ATP. The final reaction in each well of 10 μL consists of 50 pM hBTK, 2 μM biotin-A5-peptide, and 25 μM ATP. Phosphorylation reactions were allowed to proceed for 120 minutes. Reactions were immediately quenched by the addition of 20 uL of 1× quench buffer (15 mM EDTA, 25 mM Hepes 7.3, and 0.1% Triton X-100) containing detection reagents (0.626 nM of LANCE-Eu-W1024-anti-phosphoTyrosine antibody, PerkinElmer and 86.8 nM of Streptavidin-conjugated Dylight 650, Dyomics/ThermoFisher Scientific). After 60 minutes incubation with detection reagents, reaction plates were read on a PerkinElmer EnVision plate reader using standard TR-FRET protocol. Briefly, excitation of donor molecules (Eu-chelate:anti-phospho-antibody) with a laser light source at 337 nm produces energy that can be transferred to Dylight-650 acceptor molecules if this donor:acceptor pair is within close proximity. Fluorescence intensity at both 665 nm (acceptor) and 615 nm (donor) are measured and a TR-FRET ratio calculated for each well (acceptor intensity/donor intensity).
Measure: IC50 (nM)

Answered examples (2):
# molecule "CCOCC(=O)N1CCC[C@@H](c2nn(-c3ccc(Oc4ccccc4)cc3)c3c(N)nccc23)C1" ; its IC50 = 3.5

# molecule "Cn1cncc1C(=O)N1CCC[C@@H](c2nn(-c3ccc(Oc4ccccc4)cc3)c3c(N)nccc23)C1" ; its IC50 = 2.7

(1) CC(C)C(=O)N1CCC[C@@H](c2nn(-c3ccc(Oc4ccccc4)cc3)c3c(N)nccc23)C1
(2) Cc1ncn(C)c1C(=O)N1CCC[C@@H](c2nn(-c3ccc(Oc4ccccc4)cc3)c3c(N)nccc23)C1
Q) Lower value for measured IC50? Options: 1 , 2 Choose, then provide that item's label.
A) 1
(1: 3.7 nM, 2: 9.2 nM)

###

- Test target: Tyrosine-protein kinase BTK (Homo sapiens)
- Assay comment: To each well of a black non-binding surface Corning 384-well microplate (Corning Catalog #3820), 5 nL of compound (2000 fold dilution in final assay volume of 10 μL) was dispensed, followed by the addition of 7.5 μL of 1× kinase buffer (50 mM Hepes 7.5, 10 mM MgCl2, 0.01% Brij-35, 1 mM EGTA, 0.05% BSA & 1 mM DTT) containing 5.09 pg/μL (66.67 pM) of BTK enzyme (recombinant protein from baculovirus-transfected Sf9 cells: full-length BTK, 6HIS-tag cleaved). Following a 60 minute compound & enzyme incubation, each reaction was initiated by the addition of 2.5 μL 1× kinase buffer containing 8 μM biotinylated A5 peptide (Biotin-EQEDEPEGDYFEWLE-NH2), and 100 μM ATP. The final reaction in each well of 10 μL consists of 50 pM hBTK, 2 μM biotin-A5-peptide, and 25 μM ATP. Phosphorylation reactions were allowed to proceed for 120 minutes. Reactions were immediately quenched by the addition of 20 uL of 1× quench buffer (15 mM EDTA, 25 mM Hepes 7.3, and 0.1% Triton X-100) containing detection reagents (0.626 nM of LANCE-Eu-W1024-anti-phosphoTyrosine antibody, PerkinElmer and 86.8 nM of Streptavidin-conjugated Dylight 650, Dyomics/ThermoFisher Scientific). After 60 minutes incubation with detection reagents, reaction plates were read on a PerkinElmer EnVision plate reader using standard TR-FRET protocol. Briefly, excitation of donor molecules (Eu-chelate:anti-phospho-antibody) with a laser light source at 337 nm produces energy that can be transferred to Dylight-650 acceptor molecules if this donor:acceptor pair is within close proximity. Fluorescence intensity at both 665 nm (acceptor) and 615 nm (donor) are measured and a TR-FRET ratio calculated for each well (acceptor intensity/donor intensity).
Measure: IC50 (nM)

Answered examples (2):
# compound "COCC(=O)N1CCC[C@@H](c2nn(-c3ccc(Oc4ccccc4)cc3)c3c(N)nccc23)C1" ; its IC50 = 2.7

# compound "CC(=O)N1CCC[C@@H](c2nn(-c3ccc(Oc4ccccc4)cc3)c3c(N)nccc23)C1" ; its IC50 = 2

(1) C[C@H](O)C(=O)N1CCC[C@@H](c2nn(-c3ccc(Oc4ccccc4)cc3)c3c(N)nccc23)C1
(2) N#CC1(C(=O)N2CCC[C@@H](c3nn(-c4ccc(Oc5ccccc5)cc4)c4c(N)nccc34)C2)CC1
(3) CO[C@@H](C)C(=O)N1CCC[C@@H](c2nn(-c3ccc(Oc4ccccc4)cc3)c3c(N)nccc23)C1
(4) Nc1nccc2c([C@@H]3CCCNC3)nn(-c3ccc(Oc4ccccc4)cc3)c12
(5) C=CC(=O)N1CCC[C@@H](c2nn(-c3ccc(Oc4ccccc4)cc3)c3c(N)nccc23)C1
Q) Arrange the 5 compounds by rising IC50, starting with the smallest. Show the ranking through the labels, in the order asked for.
A) 5, 1, 3, 2, 4
(5: 0.66 nM, 1: 2.3 nM, 3: 3.9 nM, 2: 11.8 nM, 4: 30.8 nM)

###

- Test target: Tyrosine-protein kinase BTK (Homo sapiens)
- Assay comment: To each well of a black non-binding surface Corning 384-well microplate (Corning Catalog #3820), 5 nL of compound (2000 fold dilution in final assay volume of 10 μL) was dispensed, followed by the addition of 7.5 μL of 1× kinase buffer (50 mM Hepes 7.5, 10 mM MgCl2, 0.01% Brij-35, 1 mM EGTA, 0.05% BSA & 1 mM DTT) containing 5.09 pg/μL (66.67 pM) of BTK enzyme (recombinant protein from baculovirus-transfected Sf9 cells: full-length BTK, 6HIS-tag cleaved). Following a 60 minute compound & enzyme incubation, each reaction was initiated by the addition of 2.5 μL 1× kinase buffer containing 8 μM biotinylated A5 peptide (Biotin-EQEDEPEGDYFEWLE-NH2), and 100 μM ATP. The final reaction in each well of 10 μL consists of 50 pM hBTK, 2 μM biotin-A5-peptide, and 25 μM ATP. Phosphorylation reactions were allowed to proceed for 120 minutes. Reactions were immediately quenched by the addition of 20 uL of 1× quench buffer (15 mM EDTA, 25 mM Hepes 7.3, and 0.1% Triton X-100) containing detection reagents (0.626 nM of LANCE-Eu-W1024-anti-phosphoTyrosine antibody, PerkinElmer and 86.8 nM of Streptavidin-conjugated Dylight 650, Dyomics/ThermoFisher Scientific). After 60 minutes incubation with detection reagents, reaction plates were read on a PerkinElmer EnVision plate reader using standard TR-FRET protocol. Briefly, excitation of donor molecules (Eu-chelate:anti-phospho-antibody) with a laser light source at 337 nm produces energy that can be transferred to Dylight-650 acceptor molecules if this donor:acceptor pair is within close proximity. Fluorescence intensity at both 665 nm (acceptor) and 615 nm (donor) are measured and a TR-FRET ratio calculated for each well (acceptor intensity/donor intensity).
pIC50: −log10 of the molar value.
Measure: pIC50

Answered examples (2):
# compound "Nc1nccc2c([C@@H]3CCCN(C(=O)C4CC(F)(F)C4)C3)nn(-c3ccc(Oc4ccccc4)cc3)c12" ; its pIC50 = 8.05

# compound "Nc1nccc2c([C@@H]3CCCN(C(=O)C4CC4)C3)nn(-c3ccc(Oc4ccccc4)cc3)c12" ; its pIC50 = 8.48

(I) Cc1noc(C)c1C(=O)N1CCC[C@@H](c2nn(-c3ccc(Oc4ccccc4)cc3)c3c(N)nccc23)C1
(II) CC1(C(=O)N2CCC[C@@H](c3nn(-c4ccc(Oc5ccccc5)cc4)c4c(N)nccc34)C2)CC1
Q) // max by pIC50 over [ I , II ] Choose, then provide that item's label.
A) II
